B1: tRNA (parent)
chain: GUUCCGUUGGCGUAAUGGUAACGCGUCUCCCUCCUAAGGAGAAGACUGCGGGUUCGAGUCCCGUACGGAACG

- Variants of: B1
- ASSAY_PROTOCOL: yeast fitness relative to wild type (ratio to wild type); higher = fitter; tRNA-Arg(CCU), competitive growth, 37 C, YPD
Variants at the floor of the assay were thinned out.
Give label 1 when the value for yeast fitness is at least 0.6. Give label 0 when it is less.

Incoming: API: above_or_equal(metric=yeast fitness, cutoff=0.6) for item C5U C11U
Outgoing: label 1

Incoming: API: above_or_equal(metric=yeast fitness, cutoff=0.6) for item A14G A21G C33U A43C
Outgoing: label 0

Incoming: API: above_or_equal(metric=yeast fitness, cutoff=0.6) for item U3A C4G G41A G63C C66A
Outgoing: label 0

Incoming: API: above_or_equal(metric=yeast fitness, cutoff=0.6) for item A21G C27A A37U G63C
Outgoing: label 0

Incoming: API: above_or_equal(metric=yeast fitness, cutoff=0.6) for item U2A U3C G18C C29G U54A
Outgoing: label 0

Incoming: API: above_or_equal(metric=yeast fitness, cutoff=0.6) for item G10A C30A G41C C60G A70U
Outgoing: label 1

Incoming: API: above_or_equal(metric=yeast fitness, cutoff=0.6) for item C11A U13G C24G C34G G52A
Outgoing: label 0

Incoming: API: above_or_equal(metric=yeast fitness, cutoff=0.6) for item G41A C60G G67A
Outgoing: label 0

Incoming: API: above_or_equal(metric=yeast fitness, cutoff=0.6) for item C5U U16G A40G A42U G52A
Outgoing: label 0

Incoming: API: above_or_equal(metric=yeast fitness, cutoff=0.6) for item G9C C27U A42U C55G
Outgoing: label 0

Incoming: API: above_or_equal(metric=yeast fitness, cutoff=0.6) for item C5U C22G C24A
Outgoing: label 0

Incoming: API: above_or_equal(metric=yeast fitness, cutoff=0.6) for item A14G U19A A20G A40U C61G
Outgoing: label 0

Incoming: API: above_or_equal(metric=yeast fitness, cutoff=0.6) for item C4U C60G G63C
Outgoing: label 0

Incoming: API: above_or_equal(metric=yeast fitness, cutoff=0.6) for item C5U U28A A69C
Outgoing: label 0

Incoming: API: above_or_equal(metric=yeast fitness, cutoff=0.6) for item A21C G23U
Outgoing: label 1

Incoming: API: above_or_equal(metric=yeast fitness, cutoff=0.6) for item G6C U8A G58C C61A
Outgoing: label 0

Incoming: API: above_or_equal(metric=yeast fitness, cutoff=0.6) for item U53C A57C
Outgoing: label 0

Incoming: API: above_or_equal(metric=yeast fitness, cutoff=0.6) for item A15G G23C G38C C49U
Outgoing: label 0

Incoming: API: above_or_equal(metric=yeast fitness, cutoff=0.6) for item U13C U47G
Outgoing: label 1

Incoming: API: above_or_equal(metric=yeast fitness, cutoff=0.6) for item C22U U32G C34U G38U A40G C55G A70U
Outgoing: label 0

Incoming: API: above_or_equal(metric=yeast fitness, cutoff=0.6) for item U3C C31A A42G A43G G68C
Outgoing: label 0

Incoming: API: above_or_equal(metric=yeast fitness, cutoff=0.6) for item C33A C34U G52A A57G
Outgoing: label 0

Incoming: API: above_or_equal(metric=yeast fitness, cutoff=0.6) for item C31U G48C G67C
Outgoing: label 1

Incoming: API: above_or_equal(metric=yeast fitness, cutoff=0.6) for item A20G C49A
Outgoing: label 1

Incoming: API: above_or_equal(metric=yeast fitness, cutoff=0.6) for item G12A A21G C34U C62A A69U
Outgoing: label 0

Incoming: API: above_or_equal(metric=yeast fitness, cutoff=0.6) for item G23A C62U
Outgoing: label 1

Incoming: API: above_or_equal(metric=yeast fitness, cutoff=0.6) for item C24A C27G C61U
Outgoing: label 0

Incoming: API: above_or_equal(metric=yeast fitness, cutoff=0.6) for item C4G G18C A45G C62A A69C
Outgoing: label 0

Incoming: API: above_or_equal(metric=yeast fitness, cutoff=0.6) for item C55A G58C
Outgoing: label 0

Incoming: API: above_or_equal(metric=yeast fitness, cutoff=0.6) for item A20U C34U C46U G51A C66U
Outgoing: label 0

Incoming: API: above_or_equal(metric=yeast fitness, cutoff=0.6) for item U3C U19G C61U
Outgoing: label 0

Incoming: API: above_or_equal(metric=yeast fitness, cutoff=0.6) for item C27U A45C G67A
Outgoing: label 1

Incoming: API: above_or_equal(metric=yeast fitness, cutoff=0.6) for item C11G A42C
Outgoing: label 1

Incoming: API: above_or_equal(metric=yeast fitness, cutoff=0.6) for item U7G A14G C22U G38A C55A
Outgoing: label 0

Incoming: API: above_or_equal(metric=yeast fitness, cutoff=0.6) for item C24G C55U G67C
Outgoing: label 0

Incoming: API: above_or_equal(metric=yeast fitness, cutoff=0.6) for item G50A C60U
Outgoing: label 1

Incoming: API: above_or_equal(metric=yeast fitness, cutoff=0.6) for item G6C G25C A37U G39C C62G
Outgoing: label 0

Incoming: API: above_or_equal(metric=yeast fitness, cutoff=0.6) for item A42C G68A
Outgoing: label 1

Incoming: API: above_or_equal(metric=yeast fitness, cutoff=0.6) for item A14U C22U C30U C46U G52C
Outgoing: label 0

Incoming: API: above_or_equal(metric=yeast fitness, cutoff=0.6) for item A21U A36C C49A C62U A65U
Outgoing: label 0

Incoming: API: above_or_equal(metric=yeast fitness, cutoff=0.6) for item C11G C24U U28C G51A
Outgoing: label 0

Incoming: API: above_or_equal(metric=yeast fitness, cutoff=0.6) for item A14C C27G C46G C55G
Outgoing: label 0
